System: human TGF-beta1 mRNA
Experiment: Antisense inhibition of human TGF-beta1 mRNA in HuVEC cells, single 10 nM dose, Lipofectamine 2000 (Example 2)
Assay type: cell-based
Details: 10 nM oligonucleotide, HuVEC, relative to untreated control cells; gapmers targeted to SEQ ID NO: 1
In the oligonucleotide strings, read from the 5' end, every base follows the letter of its sugar. An asterisk marks phosphorothioate; unmarked linkages are phosphodiester. Other units and linkages are bracketed, terminal groups are in braces. A string of capitals states the bases alone. e = 2'-O-(2-methoxyethyl) (MOE); [5mC] = 5-methylcytosine; d = 2'-deoxy (DNA)
Listed here are substances together with their documented % inhibition.
Supply the numeric figure in %, leaving out any unit text.

Known results for substances:
SUBSTANCE	TESTED_ON	UNIT_SPEC	% inhibition
413992 (antisense e[5mC]*e[5mC]*d[5mC]*dG*dG*d[5mC]*dG*dG*d[5mC]*dA*dA*dA*dG*dG*dG*eA*eG*eG*e[5mC]*eG) [compound 413992]	human TGF-beta1 mRNA	%	60
414000 (antisense eA*eA*dG*dG*dG*dT*d[5mC]*dT*dA*dG*dG*dA*dT*dG*d[5mC]*eG*e[5mC]*eG*eG*eG) [compound 414000]	human TGF-beta1 mRNA	%	75
413979 (antisense eG*eG*d[5mC]*dT*d[5mC]*d[5mC]*d[5mC]*dA*dG*d[5mC]*dG*dG*d[5mC]*dA*dA*e[5mC]*eG*eG*eA*eA) [compound 413979]	human TGF-beta1 mRNA	%	87
414031 (antisense eA*eT*dG*dT*d[5mC]*d[5mC]*dA*d[5mC]*dT*dT*dG*d[5mC]*dA*dG*dT*eG*eT*eG*eT*eT) [compound 414031]	human TGF-beta1 mRNA	%	66

Then there is this substance:
// % inhibition value for 413993 (antisense eT*e[5mC]*d[5mC]*d[5mC]*d[5mC]*dG*dG*d[5mC]*dG*dG*d[5mC]*dA*dA*dA*dG*eG*eG*eA*eG*eG) [compound 413993] : 52

---

Tested on: human TGF-beta1 mRNA
Assay: Dose-dependent antisense inhibition of human TGF-beta1 in HuVEC cells, Lipofectamine 2000, 0.3292-80 nM, comparison with oligos of U.S. Pat. No. 6,436,909 (Example 4)
Format: cell-based
Conditions: 26.6667 nM
In the oligonucleotide strings, read from the 5' end, every base follows the letter of its sugar. An asterisk marks phosphorothioate; unmarked linkages are phosphodiester. Other units and linkages are bracketed, terminal groups are in braces. A string of capitals states the bases alone. e = 2'-O-(2-methoxyethyl) (MOE); [5mC] = 5-methylcytosine; d = 2'-deoxy (DNA)
READOUT_TYPE: percent inhibition of TGF-beta1 (%)
Report as a plain number; the unit % is understood.

Sample records with percent inhibition of TGF-beta1:
SUBSTANCE	TESTED_ON	READOUT_TYPE	EXPERIMENTAL_VALUE
414035 (antisense GTCCTTAAATACAGCCCCCA; sugars from the 5' end e2 d13 e5, backbone and methylation of C not given here) [compound 414035]	human TGF-beta1 mRNA	percent inhibition of TGF-beta1	93
414040 (antisense e[5mC]*eT*d[5mC]*dT*d[5mC]*dT*d[5mC]*d[5mC]*dA*dT*d[5mC]*dT*dT*dT*dA*eA*eT*eG*eG*eG) [compound 414040]	human TGF-beta1 mRNA	percent inhibition of TGF-beta1	94
413982 (antisense GCCTCCGGCTCCCAGCGGCA; sugars from the 5' end e2 d13 e5, backbone and methylation of C not given here) [compound 413982]	human TGF-beta1 mRNA	percent inhibition of TGF-beta1	95

Please examine the following record next.
Reported percent inhibition of TGF-beta1 (human TGF-beta1 mRNA) for entry 414036 (antisense GTGTCCTTAAATACAGCCCC; sugars from the 5' end e2 d13 e5, backbone and methylation of C not given here) [compound 414036] is 92
